tested on: SR leukemia; test: NCI-60 one-dose screen, 48 h; details: 10 µM unless noted
The panel holds about 83,000 compounds, 20% with a hit somewhere; the sample as a whole holds those more often. Active and inactive are the calls of the source. How the source made its calls: active means growth percent below 10; inactive means the rest.
Hi! Could you answer with just one of these? active, inactive

Inquiry: Please state the recorded outcome for this compound: NS(=O)(=O)c1ccccc1NC(=O)Nc1nc2ccccc2s1
Reply text: inactive

Inquiry: For this compound, state the assay outcome: COc1ccc(C/C(C)=C(\c2ccc(Cl)cc2)c2ccc(OCCN3CCCCC3)cc2)cc1
Reply text: inactive

Inquiry: Given Cc1cc(C(=O)Nc2ncc(Cc3cccc(C(F)(F)F)c3)s2)c2ccccc2n1 , state the outcome it received in this test.
Reply text: active

Inquiry: Could you kindly confirm the outcome this assay logged for COc1cc2cc(NCc3cccc(Cl)c3)nc(C)c2cc1OC ?
Reply text: inactive

Inquiry: Kindly provide the recorded test outcome for the following compound: O=c1[nH]c(Cc2nc3ccccc3s2)nc2cc(Br)ccc12
Reply text: inactive

Inquiry: Can you look up the reported call for O=C(O)CCN1C(=O)/C(=C/C(Cl)=C/c2ccccc2)SC1=S for me?
Reply text: active

Inquiry: Query: recorded result category for Oc1c(I)cc(I)cc1CNCCN(Cc1ccccn1)Cc1ccccn1 in this test
Reply text: active

Inquiry: Answer briefly: the call reported for CC(=O)Oc1ccc(/C(=C(\C)c2ccc(Cl)cc2)c2ccc(OCCN3CCCCC3)cc2)cc1 in this assay.
Reply text: active

Inquiry: # outcome recorded in this test, key = O=C(O)c1ccc(-n2cc(/C=N/Nc3ccccc3)c(-c3ccc(F)cc3F)n2)cc1
Reply text: inactive

Inquiry: Answer briefly: the call reported for Cc1ccccc1/C=C/C(=O)c1cccc(OCCCOc2cccc(C(=O)/C=C/c3ccccc3C)c2)c1 in this assay.
Reply text: inactive
